Recorded conversion to 1,5-cz-[Ln(Lig)], Dy^III by entry
- measurement.description: Formation of 1,5-cz-[Ln(Lig)] from Lig and Ln^III ions (metal dependent click-zip), MOPS/NaOH buffer pH 7.0, analytical HPLC (Charts 1, 2)
- condition.description: Dy^III; after 1 hour at 80° C.; MOPS/NaOH buffer pH 7.0
The response must be a number in % with no trailing unit.

1. C#Cc1cccc(CN2CCN(CC(=O)O)CCN(Cc3cc(-c4ccccc4)cc(CN=[N+]=[N-])n3)CCN(CC(=O)O)CC2)n1: 13
2. C#Cc1cccc(CN2CCN(CP(=O)(O)c3ccccc3)CCN(Cc3cccc(CN=[N+]=[N-])n3)CCN(CP(=O)(O)c3ccccc3)CC2)n1: 1
3. C#Cc1cccc(CN2CCN(CC(=O)NCC(=O)O)CCN(Cc3cc(-c4ccccc4)cc(CN=[N+]=[N-])n3)CCN(CC(=O)NCC(=O)O)CC2)n1: 13
4. C#Cc1cccc(CN2CCN(CC(=O)O)CCN(Cc3cc(C(=O)OC)cc(CN=[N+]=[N-])n3)CCN(CC(=O)O)CC2)n1: 5

Just so you know, measured conversion to 1,5-cz-[Ln(Lig)], Dy^III for [N-]=[N+]=NCc1cccc(CN2CCN(CC(=O)O)CCN(Cc3cccc(C#CC4CC4)n3)CCN(CC(=O)O)CC2)n1 came out at 1

C#Cc1cccc(CN2CCN(CC(=O)O)CCN(Cc3cc(C(F)(F)F)cc(CN=[N+]=[N-])n3)CCN(CC(=O)O)CC2)n1 yielded conversion to 1,5-cz-[Ln(Lig)], Dy^III of 15

* * *

- measurement.description: Formation of 1,5-cz-[Ln(Lig)] from Lig and Ln^III ions (metal dependent click-zip), MOPS/NaOH buffer pH 7.0, analytical HPLC (Charts 1, 2)
- condition.description: Tb^III; after 1 hour at 80° C.; MOPS/NaOH buffer pH 7.0
observed.property: conversion to 1,5-cz-[Ln(Lig)], Tb^III (%)
Numbers only; they are read as %.

The following compounds have reported results that may help.
1) C#CCN(CC#C)CCN1CCN(CC(=O)O)CCN(Cc2cc(-c3ccccc3)cc(CN=[N+]=[N-])n2)CCN(CC(=O)O)CC1: 0
2) C#Cc1cccc(CN2CCN(CC(=O)NCC(=O)O)CCN(Cc3cc(-c4ccccc4)cc(CN=[N+]=[N-])n3)CCN(CC(=O)NCC(=O)O)CC2)n1: 9
3) C#Cc1cccc(CN2CCN(CC(=O)O)CCN(Cc3cc(C(=O)OC)cc(CN=[N+]=[N-])n3)CCN(CC(=O)O)CC2)n1: 3
4) C#Cc1cccc(CN2CCN(CCC(=O)O)CCN(Cc3cccc(CN=[N+]=[N-])n3)CCN(CCC(=O)O)CC2)n1: 0
5) CC(C)(C#Cc1cccc(CN2CCN(CC(=O)O)CCN(Cc3cccc(CN=[N+]=[N-])n3)CCN(CC(=O)O)CC2)n1)NC(=O)OC(C)(C)C: 2

Now look at this entry.
Record C#Cc1cccc(CN2CCN(CC(=O)O)CCN(Cc3cc(-c4ccccc4)cc(CN=[N+]=[N-])n3)CCN(CC(=O)O)CC2)n1 . Reported conversion to 1,5-cz-[Ln(Lig)], Tb^III: 9

* * *

In this section, each of the molecules is paired with its reported fraction of intact chelate.
- measurement.description: Dissociation of chelates in aq. 0.1M HCl at 80° C. (acid decomplexation kinetic inertness) (Chart 19)
- Assay type: physicochemical
- condition.description: 1 hour
// note: answer is a bare numeric in %

1. O=C1C[N@@]2CC[N@]3CC[N@@](CC[N@](CC2)Cc2cccc(n2)-c2cnnn2Cc2cc(-c4ccccc4)cc(n2)C3)CC(=O)[O][Dy][O]1 [TD866]: 100

For O=C1C[N@@]2CC[N@]3CC[N@@](CC[N@](CC2)Cc2cccc(n2)-c2cnnn2Cc2cc(-c4ccccc4)cc(n2)C3)CC(=O)[O][Tb][O]1 [TD600] the molecule record lists fraction of intact chelate as 100

The recorded fraction of intact chelate for O=C1C[N@@]2CC[N@]3CC[N@@](CC[N@](CC2)Cc2cccc(n2)-c2cn(nn2)Cc2cc(-c4ccccc4)cc(n2)C3)CC(=O)[O][Gd][O]1 [TD875] is 0

Note to self: fraction of intact chelate recorded for O=C1C[N@@]2CC[N@]3CC[N@@](CC[N@](CC2)Cc2cccc(n2)-c2cnnn2Cc2cc(-c4ccccc4)cc(n2)C3)CC(=O)[O][Ho][O]1 [TD648] was 100

Noted for O=P1(c2ccccc2)C[N@@]2CC[N@]3CC[N@@](CC[N@](CC2)Cc2cccc(n2)-c2cnnn2Cc2cccc(n2)C3)CP(=O)(c2ccccc2)[O][Gd][O]1 (stereo partly drawn) [TD925] : its fraction of intact chelate reads 100

Please fill in: fraction of intact chelate reported for O=C([O-])CN1CCN2CCN(CC(=O)[O-])CCN(CC1)Cc1cccc(n1)-c1cnnn1Cc1cc(-c3ccccc3)cc(n1)C2.[Ca+2] [TD863] = 0

# fraction of intact chelate of O=C1C[N@@]2CC[N@]3CC[N@@](CC[N@](CC2)Cc2cccc(n2)-c2cn(nn2)Cc2cc(-c4ccccc4)cc(n2)C3)CC(=O)[O][Lu][O]1 [TD874] = 0

// field: fraction of intact chelate; key: O=C1C[N@@]2CC[N@]3CC[N@@](CC[N@](CC2)Cc2cccc(n2)-c2cnnn2Cc2cc(-c4ccccc4)cc(n2)C3)CC(=O)[O][Nd][O]1 [TD868] ; value = 76

The recorded fraction of intact chelate for O=C1C[N@@]2CC[N@]3CC[N@@](CC[N@](CC2)Cc2cccc(n2)-c2cnnn2Cc2cc(-c4ccccc4)cc(n2)C3)CC(=O)[O][Er][O]1 [TD865] is 100

Given item O=C1C[N@@]2CC[N@]3CC[N@@](CC[N@](CC2)Cc2cccc(n2)-c2cnnn2Cc2cc(-c4ccccc4)cc(n2)C3)CC(=O)[O][Sm][O]1 [TD867] , the value recorded as its fraction of intact chelate is 99

Record O=C([O-])CN1CCN2CCN(CC(=O)[O-])CCN(CC1)Cc1cccc(n1)-c1cnnn1Cc1cc(-c3ccccc3)cc(n1)C2.[Pb+2] [TD876] . Reported fraction of intact chelate: 0

Sample O=C([O-])CN1CCN2CCN(CC(=O)[O-])CCN(CC1)Cc1cccc(n1)-c1cnnn1Cc1cc(-c3ccccc3)cc(n1)C2.[Zn+2] [TD890] ; fraction of intact chelate observed: 46

* * *

- measurement.description: Formation of 1,5-cz-[Ln(Lig)] from Lig and Ln^III ions (metal dependent click-zip), MOPS/NaOH buffer pH 7.0, analytical HPLC (Charts 1, 2)
- condition.description: Lu^III; after 1 hour at 80° C.; MOPS/NaOH buffer pH 7.0
observed.property: conversion to 1,5-cz-[Ln(Lig)], Lu^III
Just so you know, I need the unit written after the number.

Answered examples (2):
1) [N-]=[N+]=NCc1cccc(CN2CCN(CC(=O)O)CCN(Cc3cccc(C#CC45CC6CC(CC(C6)C4)C5)n3)CCN(CC(=O)O)CC2)n1: 6%
2) CC(C)(C#Cc1cccc(CN2CCN(CC(=O)O)CCN(Cc3cccc(CN=[N+]=[N-])n3)CCN(CC(=O)O)CC2)n1)NC(=O)OC(C)(C)C: 8%

Please look at the following molecule next.
C#Cc1cccc(CN2CCN(CC(=O)O)CCN(Cc3cccc(CN=[N+]=[N-])n3)CCN(CC(=O)O)CC2)n1 yielded conversion to 1,5-cz-[Ln(Lig)], Lu^III of 71%

* * *

Listed here: items and their measured conversion to 1,5-cz-[Ln(Lig)], Dy^III.
- measurement.description: Formation of 1,5-cz-[Ln(Lig)] from Lig and Ln^III ions (metal dependent click-zip), MOPS/NaOH buffer pH 7.0, analytical HPLC (Charts 1, 2)
- condition.description: Dy^III; after 1 hour at 80° C.; MOPS/NaOH buffer pH 7.0
State the answer as a number, implicitly in %.

1) C#Cc1cccc(CN2CCN(CC(=O)O)CCN(Cc3cccc(CN=[N+]=[N-])n3)CCN(CP(=O)(O)O)CC2)n1 [TD714]: 23
2) C#Cc1cccc(CN2CCN(CC(N)=O)CCN(Cc3cc(-c4ccccc4)cc(CN=[N+]=[N-])n3)CCN(CC(N)=O)CC2)n1 [TD779]: 8
3) C#Cc1cccc(CN2CCN(CC(=O)O)CCN(Cc3cc(-c4ccc(C(=O)O)cc4)cc(CN=[N+]=[N-])n3)CCN(CC(=O)O)CC2)n1 [TD742]: 15

Now, please, on to the next compound.
Briefly, conversion to 1,5-cz-[Ln(Lig)], Dy^III measured for CC(C)(C)C#Cc1cccc(CN2CCN(CC(=O)O)CCN(Cc3cccc(CN=[N+]=[N-])n3)CCN(CC(=O)O)CC2)n1 [TD959] : 1

* * *

- measurement.description: Dissociation of chelates in aq. 0.1M HCl at RT (acid decomplexation kinetic inertness) (Chart 20)
- Assay type: physicochemical
- condition.description: 1 day
Listed below: fraction of intact chelate values for each entry.
// note: answer is a bare numeric in %

Here's what some known entries look like.
1. O=C1C[N@@]2CC[N@]3CC[N@@](CC[N@](CC2)Cc2cccc(n2)-c2cnnn2Cc2cc(-c4ccccc4)cc(n2)C3)CC(=O)[O][Gd][O]1 [TD527]: 100
2. O=C1C[N@@]2CC[N@]3CC[N@@](CC[N@](CC2)Cc2cccc(n2)-c2cn(nn2)Cc2cc(-c4ccccc4)cc(n2)C3)CC(=O)[O][Lu][O]1 [TD874]: 68
3. O=P1(c2ccccc2)C[N@@]2CC[N@]3CC[N@@](CC[N@](CC2)Cc2cccc(n2)-c2cnnn2Cc2cccc(n2)C3)CP(=O)(c2ccccc2)[O][Gd][O]1 (stereo partly drawn) [TD925]: 100

Form field fraction of intact chelate, entry O=C1C[N@@]2CC[N@]3CC[N@@](CC[N@](CC2)Cc2cccc(n2)-c2cnnn2Cc2cc(-c4ccccc4)cc(n2)C3)CC(=O)[O][Nd][O]1 [TD868] : 90

Input O=C1C[N@@]2CC[N@]3CC[N@@](CC[N@](CC2)Cc2cccc(n2)-c2cnnn2Cc2cc(-c4ccccc4)cc(n2)C3)CC(=O)[O][Dy][O]1 [TD866] . Output fraction of intact chelate: 100

Looking up O=C([O-])CN1CCN2CCN(CC(=O)[O-])CCN(CC1)Cc1cccc(n1)-c1cnnn1Cc1cc(-c3ccccc3)cc(n1)C2.[Zn+2] [TD890] , I found its fraction of intact chelate recorded as 93
